Numbers sourced from patent US20250042891A1.

test system: HCC1428; test: CTG assay for proliferation inhibition of cell lines; assay type: cell-based; settings: Homo sapiens, 168 h; HCC1428, 7 days, CellTiter Glo
Answer each item with its documented IC50.
Numbers only; they are read as µM.

Param item = Cn1nc(-c2nnc(C(F)F)s2)c2cc(S(=O)(=O)NC3(C#N)CC3)cc(C3=CCN(S(=O)(=O)C4CCC4)CC3)c21 [Compound 12] ; retrieve measured IC50.
0.151

Okay, and CC(C)S(=O)(=O)N1CC=C(c2cc(S(=O)(=O)NC3(C#N)CC3)cc3c(-c4nnc(C(F)(F)F)s4)nn(CC4COC4)c23)CC1 [Compound 60] ?
0.0778

Okay, and Cn1nc(-c2nnc(C(F)F)s2)c2cc(S(=O)(=O)NC3(C#N)CC3)cc(C3=CCN(S(=O)(=O)C4(C)CC4)CC3)c21 [Compound 14] ?
0.399

Okay, and CC(C)C(=O)N1CCN(c2cc(S(=O)(=O)NC3(C#N)CC3)cc3c2cnn3-c2nnc(C(F)F)s2)CC1 [1′, reference compound] ?
1.38

----------
target: PARG (389-976) (Homo sapiens (Human), UniProt Q86W56); assay: PARG enzyme inhibition assay (TR-FRET); type: biochemical; details: numeric value in parentheses under the class symbol
Sequence (Q86W56 389-976): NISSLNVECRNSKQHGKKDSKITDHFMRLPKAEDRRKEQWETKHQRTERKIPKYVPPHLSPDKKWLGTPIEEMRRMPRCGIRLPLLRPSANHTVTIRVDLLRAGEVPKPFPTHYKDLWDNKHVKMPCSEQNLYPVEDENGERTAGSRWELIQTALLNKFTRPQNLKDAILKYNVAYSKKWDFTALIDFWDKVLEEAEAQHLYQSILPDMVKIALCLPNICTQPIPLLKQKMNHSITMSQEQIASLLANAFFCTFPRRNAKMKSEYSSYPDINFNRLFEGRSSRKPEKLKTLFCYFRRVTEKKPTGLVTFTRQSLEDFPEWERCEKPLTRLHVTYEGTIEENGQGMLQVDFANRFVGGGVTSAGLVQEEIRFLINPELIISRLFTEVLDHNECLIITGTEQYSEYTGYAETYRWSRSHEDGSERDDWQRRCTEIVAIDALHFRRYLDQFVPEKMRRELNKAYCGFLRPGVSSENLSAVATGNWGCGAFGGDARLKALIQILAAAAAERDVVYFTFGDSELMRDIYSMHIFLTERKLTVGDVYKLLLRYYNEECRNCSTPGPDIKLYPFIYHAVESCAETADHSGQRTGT
pIC50: −log10 of the molar value.
Would you mind labelling by pIC50? At or over 9 is true, under is false.

Identify whether the reported pIC50 of the following compound is 9 or greater: Cn1nc(-c2nnc(C(F)F)s2)c2cc(S(=O)(=O)NC3(C#N)CC3)cc(C3=CCN(S(=O)(=O)C4CCOCC4)CC3)c21 [Compound 5]
true

Okay, and CC(C)S(=O)(=O)N1CC=C(c2cc(S(=O)(=O)NC3(C)CC3)cc3c(-c4nnc(C(F)F)s4)nn(C)c23)CC1 [Compound 19] ?
true

Okay, and Cn1nc(-c2nnc(C(F)F)s2)c2cc(S(=O)(=O)NC3(C#N)CC3)cc(C3=CCN(S(=O)(=O)C4CNC4)CC3)c21 [Compound 20] ?
true

Okay, and CC(C)C(=O)N1CCN(c2cc(S(=O)(=O)NC3(C#N)CC3)cc3c2cnn3-c2nnc(C(F)F)s2)CC1 [1′, reference compound] ?
false

Okay, and CC(C)[S+]([O-])N1CC=C(c2cc(S(=O)(=O)NC3(C#N)CC3)cc3c(-c4nnc(C(F)F)s4)nn(C)c23)CC1 (stereo not shown) [Compound 25] ?
true

Okay, and CC(C)S(=O)(=O)N1CC=C(c2cc(S(=O)(=O)NC3(C#N)CC3)cc3c(-c4nnc(C(F)F)s4)nn(CCN(C)C)c23)CC1 [Compound 26] ?
true

----------
System: HCC1395
Assay: CTG assay for proliferation inhibition of cell lines
Format: cell-based
Details: HCC1395, 7 days, CellTiter Glo
Description: The assay was conducted on either 384-well plates or 96-well plates. The procedures are as follows: The cell suspensions were added to 384- or 96-well plates (384-well plate: 50 μL; 96-well plate: 100 μL) except for peripheral wells. […] The incubated plates were placed into Victor NIVO reader plates, and the pharmacodynamic inhibition curves were plotted and IC50 values were calculated using XLFit.
Could you please mark Fulfilled for values of IC50 below 0.5 µM and Not fulfilled for values at or above it?

API: query returns whether the compound falls strictly under 0.5 µM in IC50. Query: CC(C)S(=O)(=O)N1CC=C(c2cc(S(=O)(=O)NC3(C#N)CC3)cc3c(-c4noc(C(F)(F)F)n4)nn(C)c23)CC1 [Compound 53]
Fulfilled

Okay, and CC(C)S(=O)(=O)N1CC=C(c2cc(S(=O)(=O)NC3(C)CC3)cc3c(-c4nnc(C(F)F)s4)nn(C)c23)CC1 [Compound 19] ?
Fulfilled

Okay, and CC(C)S(=O)(=O)N1CC=C(c2cc(S(=O)(=O)NC3(C#N)CC3)cc3c(-c4nnc(C(F)F)s4)nn(C)c23)C(F)C1 (stereo not drawn) [Compound 69] ?
Fulfilled

Okay, and CC(C)[S+]([O-])N1CC=C(c2cc(S(=O)(=O)NC3(C#N)CC3)cc3c(-c4nnc(C(F)F)s4)nn(C)c23)CC1 (stereo not drawn) [Compound 25] ?
Fulfilled

Okay, and CC(C)S(=O)(=O)N1CC=C(c2cc(S(=O)(=O)NC3(C#N)CC3)cc3c(-c4nnc(C(F)(F)F)s4)nn(CC4CNC4)c23)CC1 [Compound 61] ?
Not fulfilled
